# Tested on: A549
# assay name: NCI tumour cell line growth inhibition, 48 h
Active and inactive are the calls of the source. Rule as the data show it: active = GI50 up to about 1.1 µM and inactive = higher.
Measured GI50, listed per entry.

Answered examples (2):
>>> observed_result("O=C(O)CCc1nn2c(nc1=O)sc1ccc3ccccc3c12")
"> 100 µM (inactive)"
>>> observed_result("CC1CC(c2ccc(Cl)cc2)=Nc2ccccc2S1 (stereo not given)")
"> 100 µM (inactive)"

Notebook: `Cc1nc2ccc([N+](=O)[O-])cc2c(=O)n1C(=S)Nc1cccc(Cl)c1` , GI50 read as 23.2 µM (inactive)

Notebook: `CCOC(=O)CSc1nc(-c2ccc(Cl)cc2)c(C#N)c(=O)[nH]1` , GI50 read as > 100 µM (inactive)

Notebook: O=C1CC(c2cccc(F)c2)Nc2cc3c(cc21)OCO3 (stereo not given) , GI50 read as 0.0363 µM (active)

Notebook: `Cc1ccc(Nc2cn(COCc3ccccc3)c(=O)[nH]c2=O)cc1` , GI50 read as > 100 µM (inactive)

Notebook: `CC1=CCC[C@H]2[C@](C)(CC3=CC(=O)C(Sc4ccccc4)=CC3=O)[C@@H](C)CC[C@]12C` , GI50 read as 17.5 µM (inactive)

Notebook: CCCCCCCCOC(=O)C12Oc3ccc(-c4ccc5c(c4O)C(=O)C4=C(O)CC(C)C(O)C4(C(=O)OCCCCCCCC)O5)c(O)c3C(=O)C1=C(O)CC(C)C2O (stereo not given) , GI50 read as 4.79 µM (inactive)

Notebook: `COc1ccc2[nH]c3c(c2c1)CCc1c(OC)cccc1-3` , GI50 read as > 100 µM (inactive)

Notebook: O=C1OC(CCCN2CCCCC2)(c2ccccc2)CC12CCCC2 (stereo not given) , GI50 read as > 100 µM (inactive)

----------
# System: CAKI-1
# assay name: NCI tumour cell line growth inhibition, 48 h
Calls of active or inactive are those of the source. Cut-off read from the data, not from the text of the source: active = GI50 up to about 1.1 µM and inactive = higher.
Measured GI50, listed per entry.

Answered examples (5):
>>> observed_result("CCCCCCCCCCCC(=O)OCC1OC(n2cc(F)c(=O)[nH]c2=O)C(NC(=O)OCc2ccccc2)C(O)C1O (stereo not given)")
"32.6 µM (inactive)"
>>> observed_result("COc1ccc(C(C#N)Cc2cc(OC)c(OC)c(OC)c2)cc1 (stereo not given)")
"29.3 µM (inactive)"
>>> observed_result("N#CC(C(=O)/C(=N\\Nc1nc(S)nn1N)C(C#N)c1ccc(Cl)cc1)c1ccc(Cl)cc1 (stereo not given)")
"> 100 µM (inactive)"
>>> observed_result("Fc1cc(-c2ncc(Cl)cc2Cl)c2cccccc1-2")
"> 100 µM (inactive)"
>>> observed_result("CC1=CCC[C@H]2[C@](C)(CC3=CC(=O)C(Sc4ccccc4)=CC3=O)[C@@H](C)CC[C@]12C")
"17.1 µM (inactive)"

Notebook: `O=C(O)c1ccccc1CC1Cc2ccccc2C1` , GI50 read as > 100 µM (inactive)

Notebook: CC(C)(C)C(=O)C1CC(=O)c2ccccc2C1=O (stereo not given) , GI50 read as 39.6 µM (inactive)

Notebook: `Cc1ccc(/N=N/C(=O)NNc2ccc(C)c([N+](=O)[O-])c2)cc1[N+](=O)[O-]` , GI50 read as 18.8 µM (inactive)

Notebook: O=C1NN(c2ccccc2)C(=O)C2C3c4ccccc4C(c4ccccc43)C12 (stereo not given) , GI50 read as > 100 µM (inactive)

Notebook: CNc1ncnc2c1cnn2COCC(O)CO (stereo not given) , GI50 read as > 100 µM (inactive)

----------
Measured GI50, listed per entry.
# Tested on: HCT-116
# assay name: NCI tumour cell line growth inhibition, 48 h
Activity calls are given as the source filed them. No stated cut-off is given here; in the data, active = GI50 up to about 1.1 µM and inactive = higher.

Answered examples (4):
>>> observed_result("COc1cc2c(c(OC)c1OC)-c1c(cc3c(c1OC)OCO3)CC(C)C(C)(O)C2OC(=O)c1ccccc1 (stereo not given)")
"31.4 µM (inactive)"
>>> observed_result("CCOC(=O)C(C)c1nc2ccc(C(F)(F)F)cc2[nH]c1=O (stereo not given)")
"72.8 µM (inactive)"
>>> observed_result("CC1(c2sccc2Cl)CC(c2sccc2Cl)=C(C#N)C(=C(C#N)C#N)N1 (stereo not given)")
"17.2 µM (inactive)"
>>> observed_result("NC1CCCCC1NCCNC1CCCCC1N (stereo not given)")
"47.5 µM (inactive)"

Notebook: COC1(OC)N=C(N)C2(C#N)C3(C(=O)N(C(C)C)N=C3C)C12C#N (stereo not given) , GI50 read as > 100 µM (inactive)

Notebook: COc1ccc(N2C(=O)C3c4[nH]c5ccc(OCc6ccccc6)cc5c4C4CCC(c5ccccc5)CC4C3C2=O)cc1 (stereo not given) , GI50 read as 11.1 µM (inactive)

Notebook: CC1C(OS(=O)(=O)c2ccc3nc(S)sc3c2)CC2C3(C)CCC2(C(C)C(=O)O)C(O)C13 (stereo not given) , GI50 read as 13.6 µM (inactive)

Notebook: `CC1=C(C(=O)NCc2ccccc2)C(c2ccc([N+](=O)[O-])cc2)C(C(=O)NCc2ccccc2)=C(C)N1` , GI50 read as 21.9 µM (inactive)

Notebook: `Cc1cc2c(=O)cc(-c3ccncc3)oc2c(C(N)=O)c1C` , GI50 read as 83.4 µM (inactive)

Notebook: O=C1CC[N+]2=Cc3ccccc3O[B-]2(c2ccccc2)O1 (stereo not given) , GI50 read as > 100 µM (inactive)

----------
Measured GI50, listed per entry.
# Test system: UACC-257
# assay name: NCI tumour cell line growth inhibition, 48 h
Calls of active or inactive are those of the source. Rule as the data show it: active = GI50 up to about 1.1 µM and inactive = higher.

Answered examples (4):
>>> observed_result("CC1=C(C(=O)Nc2cccc(Cl)c2)C(c2ccccc2O)C(C(=O)Nc2cccc(Cl)c2)=C(C)N1")
"20.2 µM (inactive)"
>>> observed_result("N#CC(C#N)c1ccc(C(=O)N2CCC[C@H]2CO)cc1")
"> 100 µM (inactive)"
>>> observed_result("CC(C)(C)C1=Cc2cc3cc(C(C)(C)C)[nH]c(=O)c3cc2S(=O)(=O)N1")
"25.1 µM (inactive)"
>>> observed_result("O=C1c2ccccc2C(=O)c2c1ccc1c2OCO1")
"> 100 µM (inactive)"

GI50 of CCOC(=O)NC(=O)c1cn(C2OC(COC(=O)CCCCCCCCC(=O)OCC3OC(n4cc(C(=O)NC(=O)OCC)c(=O)[nH]c4=O)C(O)C3O)C(O)C2O)c(=O)[nH]c1=O (stereo not given) , assay on UACC-257, is > 100 µM (inactive)

----------
# Tested on: SW-620
# assay name: NCI tumour cell line growth inhibition, 48 h
Calls of active or inactive are those of the source. No stated cut-off is given here; in the data, active = GI50 up to about 1.1 µM and inactive = higher. Where a SMILES comes first, the peptide text is derived from it. [ ]: non-standard residue; d: D form. The star is where a group is joined. ξ: configuration not given here. ξPhe(4-NO2) = NC(Cc1ccc([N+](=O)[O-])cc1)C(=O)O; Boc = CC(C)(C)OC(=O)*; OBn = c1ccc(CO*)cc1
Hi there, use one of these labels in your reply, thanks! active, inactive

See these solved cases before continuing.
>>> class_assignment("CC1(C)C2CCC1(C)[C@H](n1c(=O)n([C@@H]3CC4CCC3(C)C4(C)C)c(=O)n([C@@H]3CC4CCC3(C)C4(C)C)c1=O)C2")
"inactive"
>>> class_assignment("O=C1C(=O)N(c2ccc(Cl)cc2)C(=O)C(=O)C1c1nc2ccccc2s1")
"inactive"
>>> class_assignment("Clc1ccc2c(c1)N(CCCN1CCCC13CCCCC3)c1ccccc1S2")
"inactive"
>>> class_assignment("CCOC(=O)P(=O)(O)c1ccc(N(C)Cc2ccccc2)cc1")
"inactive"

[Q] Would you mind telling me which call this test gave CN(C)P(=O)(Oc1ccc(CC(NC(=O)OCc2ccccc2)C(=O)OCc2ccccc2)cc1)N(C)C (stereo not given) ?
[A] inactive

[Q] Would you mind telling me which call this test gave CC1(C)C(N2CCOCC2)CS1(=O)=O (stereo not given) ?
[A] inactive

[Q] Would you mind telling me which call this test gave CC(C)(C)OC(=O)NC(Cc1ccc([N+](=O)[O-])cc1)C(=O)NCC(=O)OCc1ccccc1 (stereo not given) (Boc-[ξPhe(4-NO2)]-Gly-OBn) ?
[A] inactive

[Q] Would you mind telling me which call this test gave `c1ccc(C(=NNc2nc3ccccc3[nH]2)c2ccccn2)nc1` ?
[A] active

[Q] Would you mind telling me which call this test gave `O=S(=O)(c1ccc(/N=N/O)nc1)c1ccc2ccccc2c1` ?
[A] inactive

[Q] Would you mind telling me which call this test gave COC1OC(OC)C2C(c3c(C)cc(C)cc3C)=NOC12 (stereo not given) ?
[A] inactive

----------
# Tested on: RXF 393
# assay name: NCI tumour cell line growth inhibition, 48 h
Activity calls are given as the source filed them. Rule as the data show it: active = GI50 up to about 1.1 µM and inactive = higher.
Measured GI50, listed per entry.

Answered examples (4):
>>> observed_result("O=C1c2ccccc2OP(=O)(OCC(F)(F)F)OC1(C(F)(F)F)C(F)(F)F (stereo not drawn)")
"> 100 µM (inactive)"
>>> observed_result("O=C(O)c1ccc(Nc2cnc3ccc(C(F)(F)F)cc3n2)cc1")
"12.6 µM (inactive)"
>>> observed_result("CCOC(=O)NC(=O)c1cn(C2OC(COC(=O)CCCCCCCCC(=O)OCC3OC(n4cc(C(=O)NC(=O)OCC)c(=O)[nH]c4=O)C(O)C3O)C(O)C2O)c(=O)[nH]c1=O (stereo not drawn)")
"> 100 µM (inactive)"
>>> observed_result("CCn1c(=O)c2c3ccc(OC(C)=O)cc3[nH]c2c2ccc(OC(C)=O)cc21")
"34.2 µM (inactive)"

GI50 of `Cc1ccc(S(=O)(=O)N[C@H](C(=O)O)c2ccccc2)cc1` , assay on RXF 393, is > 100 µM (inactive)

GI50 of `Cc1cc(C)nc(NS(=O)(=O)c2ccc(Nc3c4ccccc4nc4c(C(=O)Nc5ccc(S(=O)(=O)N=C(N)N)cc5)cccc34)cc2)n1` , assay on RXF 393, is 24.4 µM (inactive)

GI50 of `CCNc1nc(N)c(C(=O)c2cccs2)s1` , assay on RXF 393, is 3.42 µM (inactive)

GI50 of O=C1NC(=O)C2C(=O)NC(=O)C1C2(c1ccccc1)c1cc[nH]c1 (stereo not drawn) , assay on RXF 393, is > 100 µM (inactive)

GI50 of CCC/C(=N/NC(=O)C(N)=O)C(CC)C(=O)CCC(=O)N(Cc1ccccc1)Cc1ccccc1 (stereo not drawn) , assay on RXF 393, is > 100 µM (inactive)
